Tested on: MC3T3
Experiment: Cytotoxicity test (MTT), MC3T3
Format: cell-based
Settings: 10^−6M, 72 hrs, in comparison with the control group
Method: The cytotoxic effect of the benzamidine derivative of the present invention was evaluated by carrying out the experiment described below. The test substance was diluted in an appropriate solvent at a 10^−2 M concentration. […] Finally, the absorbance of the developed plates was measured at 540 nm. The survival rates of the cells were expressed as % concentration values in comparison with the control group.
Would you mind labelling by survival rates of the cells? At or over 90% is T, under is F.

As a guide, the following entries are already answered.
>  <smiles_data>
N=C(NO)c1ccc(OCCCCCOc2ccc(-c3nc(N(CCN4CCOCC4)Cc4ccccc4)sc3CCN3CCOCC3)cc2)cc1

>  <assigned_category>
F

$$$$
>  <smiles_data>
CC(C)c1nc(-c2ccc(OCCCCCOc3ccc(C(=N)NO)cc3)cc2)c(CCN(C(=O)c2ccncc2)C2CC2)s1

>  <assigned_category>
F

$$$$
>  <smiles_data>
CCCN(CCC)CCc1sc(C2CCCCC2)nc1-c1ccc(OCCCCCOc2ccc(C(=N)NO)cc2)cc1

>  <assigned_category>
T

$$$$
>  <smiles_data>
N=C(NO)c1ccc(OCCCCCOc2ccc(-c3nc(C4CCCCC4)sc3CCN3CCSCC3)cc2)cc1

>  <assigned_category>
T

$$$$
>  <smiles_data>
COCCN(CCOC)c1nc(-c2ccc(OCCCCCOc3ccc(C(=N)NO)cc3)cc2)c(CCN2CCOCC2)s1

>  <assigned_category>
F

$$$$

Ask: Determine whether this compound has survival rates of the cells no lower than 90%: "N=C(NO)c1ccc(OCCCCCOc2ccc(-c3nc(N)sc3CCNCCN3CCOCC3)cc2)cc1"
Reply: T

###

Each record here notes measured change in vivo at 50 mg/kg/day.
tested on: ovariectomized white mouse; assay: Therapeutic effect in mouse model of osteoporosis induced by ovariectomy, trabecular bone volume of the femur by histomorphometry; type: in vivo; conditions: 696 h, ovariectomized ddY mice, femur, 50 mg/kg/day, administered from 3 days after operation for 29 days, read-out: Changes in trabecular bone volume (% relative to vehicle control)
Number in %, nothing else.

>  <smiles_data>
CN(C)c1nc(-c2ccc(OCCCCCOc3ccc(C(=N)NO)cc3)cc2)c(CCN2CCOCC2)s1

>  <change in vivo at 50 mg/kg/day, %>
25.6

$$$$
>  <smiles_data>
N=C(NO)c1ccc(OCCCCCOc2ccc(-c3nc(N4CCOCC4)sc3CCN3CCOCC3)cc2)cc1

>  <change in vivo at 50 mg/kg/day, %>
5.66

$$$$
>  <smiles_data>
CNc1nc(-c2ccc(OCCCCCOc3ccc(C(=N)NO)cc3)cc2)c(CCN2CCOCC2)s1

>  <change in vivo at 50 mg/kg/day, %>
5.77

$$$$

Here's the next entry for you.
Ask: # get_value(readout='change in vivo at 50 mg/kg/day', item= "CC(C)c1nc(-c2ccc(OCCCCCOc3ccc(C(=N)NO)cc3)cc2)c(CCN2CCOCC2)s1" )
Reply: 23.6

###

Below, each of the molecules is paired with its reported survival rates of the cells value.
system: MC3T3; assay: Cytotoxicity test (MTT), MC3T3; assay type: cell-based; conditions: 10^−6M, 72 hrs, in comparison with the control group
The answer should read as a number with its unit following.

Worked cases, answers included:
>  <smiles_data>
N=C(NO)c1ccc(OCCCCCOc2ccc(-c3nc(CN4CCCCC4)sc3CCN3CCOCC3)cc2)cc1

>  <survival rates of the cells>
89.4%

$$$$
>  <smiles_data>
CNc1nc(-c2ccc(OCCCCCOc3ccc(C(=N)N)cc3)cc2)c(CCN2CCOCC2)s1

>  <survival rates of the cells>
115.6%

$$$$
>  <smiles_data>
N=C(N)c1ccc(OCCCCCOc2ccc(-c3nc(N4CCOCC4)sc3CCN3CCOCC3)cc2)cc1

>  <survival rates of the cells>
119.8%

$$$$

Ask: Request the reported survival rates of the cells associated with "CCc1nc(-c2ccc(OCCCCCOc3ccc(C(=N)NO)cc3)cc2)c(CCN2CCSCC2)s1"
Reply: 86.5%

Ask: What do you get for "N=C(NO)c1ccc(OCCCCCOc2ccc(-c3nc(N4CCOCC4)sc3CCNCCN3CCOCC3)cc2)cc1" ?
Reply: 97.0%

Ask: Record: "N=C(NO)c1ccc(OCCCCCOc2ccc(-c3nc(C4CCCCC4)sc3CCNC3CC3)cc2)cc1"
Reply: 85.0%

Ask: How about this molecule: "CNc1nc(-c2ccc(OCCCCCOc3ccc(C(=N)NO)cc3)cc2)c(CCNCCN2CCOCC2)s1"
Reply: 97.2%

Ask: Param item: "N=C(NO)c1ccc(OCCCCCOc2ccc(-c3nc(C4CCCCC4)sc3CCNCCN3CCOCC3)cc2)cc1"
Reply: 98.6%

Ask: Try this molecule too: "CNc1nc(-c2ccc(OCCCCCOc3ccc(C(=N)NO)cc3)cc2)c(CCNCCCn2ccnc2)s1"
Reply: 93.8%

Ask: Try this molecule too: "Cc1nc(-c2ccc(OCCCCCOc3ccc(C(=N)N)cc3)cc2)c(CCN2CCOCC2)s1"
Reply: 95.3%

Ask: Could you do the same for "Cc1nc(-c2ccc(OCCCCCOc3ccc(C(=N)NO)cc3)cc2)c(CCN(CC(C)C)C(=O)c2cccnc2)s1" , please?
Reply: 111.1%
